targetOrSystem: DGKalpha (Homo sapiens)
Sequence (P23743 whole entry): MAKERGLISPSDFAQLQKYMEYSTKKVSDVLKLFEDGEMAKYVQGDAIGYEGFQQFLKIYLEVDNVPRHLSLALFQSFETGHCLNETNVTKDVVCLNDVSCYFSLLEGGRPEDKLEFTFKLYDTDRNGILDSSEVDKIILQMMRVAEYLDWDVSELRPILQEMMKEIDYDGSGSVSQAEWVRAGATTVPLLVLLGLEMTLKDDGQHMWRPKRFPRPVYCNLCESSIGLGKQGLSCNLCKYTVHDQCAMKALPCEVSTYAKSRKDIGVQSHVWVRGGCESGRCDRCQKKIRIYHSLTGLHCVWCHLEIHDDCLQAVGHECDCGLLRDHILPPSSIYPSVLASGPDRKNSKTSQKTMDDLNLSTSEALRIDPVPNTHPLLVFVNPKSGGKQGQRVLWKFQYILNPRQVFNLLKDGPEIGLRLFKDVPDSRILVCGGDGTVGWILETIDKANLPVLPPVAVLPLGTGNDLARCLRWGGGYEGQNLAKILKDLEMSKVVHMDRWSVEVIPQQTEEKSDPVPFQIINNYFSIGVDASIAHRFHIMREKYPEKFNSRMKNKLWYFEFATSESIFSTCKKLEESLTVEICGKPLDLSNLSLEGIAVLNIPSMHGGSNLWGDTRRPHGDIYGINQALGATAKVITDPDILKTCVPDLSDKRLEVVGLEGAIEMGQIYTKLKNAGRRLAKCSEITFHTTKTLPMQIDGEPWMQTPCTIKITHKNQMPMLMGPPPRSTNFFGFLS
protocol: In vitro DGK inhibition assay (ADP-Glo, liposomes), DGKalpha
Format: biochemical
Set-up: hDGKalpha(1-735)-N-His; His (N); made in house; host or cells: Sf21 insect cells (baculovirus)
assayContext: 4 nM DGK α, 25 μM ATP, 125 uM DLG in liposomes, 1 hour reaction
pIC50: −log10 of the molar value.
measurementLabel: pIC50

compound	targetOrSystem	recordedNumber
CC(C)(c1nnc(-c2ccc3c(c2)N(Cc2ccc(Oc4ccc(F)c(Cl)c4)cc2)C(=O)[C@@H](N)CS3(=O)=O)o1)S(C)(=O)=O [Example 37]	DGKalpha (Homo sapiens)	4.96
CC(C)(c1nnc(-c2cc3c(cc2F)S(=O)(=O)C[C@H](N)C(=O)N3Cc2ccc(-c3ccc(C(F)(F)F)cc3)cc2)o1)S(C)(=O)=O [Example 35]	DGKalpha (Homo sapiens)	5.91

(P) CC(C)(c1nc(-c2cc3c(cc2F)[S+]([O-])C[C@H](N)C(=O)N3Cc2ccc(Oc3ccccc3)cc2)no1)S(C)(=O)=O (stereo partly drawn) [Example 51]
(Q) CC(C)(c1nc(-c2cc3c(cc2F)S(=O)(=O)C[C@H](N)C(=O)N3Cc2ccc(Cl)cc2)no1)S(C)(=O)=O [Example 43]
When the recorded pIC50 values are compared, which is smaller: that of P or that of Q ? Your answer should be the label attached to the chosen record.
P
(P: 5.64, Q: 6.19)

(A) CC(C)(c1nc(-c2cc3c(cc2F)S(=O)(=O)C[C@H](N)C(=O)N3Cc2ccc(OCc3nc(C(F)(F)F)no3)cc2)no1)S(C)(=O)=O [Example 59]
(B) CC(C)(c1nc(-c2cc3c(cc2F)S(=O)(=O)C[C@H](N)C(=O)N3Cc2ccc(-c3noc(C4CC4)n3)cc2)no1)S(C)(=O)=O [Example 45]
Form field 'greater pIC50' accepts A or B ; which applies? Write down the label attached to your selection.
B

* * *

targetOrSystem: DGKzeta (Homo sapiens)
protocol: In vitro DGK inhibition assay (ADP-Glo, liposomes), DGKzeta
Format: biochemical
Design: hDGKzeta(1-928)-N-His; His (N); made in house; host or cells: Sf21 insect cells (baculovirus)
assayContext: 2 nM DGK ζ, 50 μM ATP, 125 uM DLG in liposomes, 1 hour reaction
pIC50: −log10 of the molar value.
measurementLabel: pIC50

(P) CC(C)(c1nnc(-c2ccc3c(c2)N(Cc2ccc(-c4ccc(C(F)(F)F)cn4)cc2)C(=O)[C@@H](N)CS3(=O)=O)o1)S(C)(=O)=O
(Q) CS(=O)(=O)C1(c2nnc(-c3ccc4c(c3)N(Cc3ccc(Oc5ccccc5)cc3)C(=O)[C@@H](N)CS4(=O)=O)o2)CCC1
(R) CN(Cc1ccccc1)c1ccc(CN2C(=O)[C@@H](N)CS(=O)(=O)c3ccc(-c4nnc(C(C)(C)S(C)(=O)=O)o4)cc32)cc1
Put the items in order so that reported pIC50 rises from first to last. Use the labels to give the requested order.
R, Q, P
(R: 5.10, Q: 5.46, P: 5.76)

* * *

targetOrSystem: UniProt:Q13574
protocol: In vitro DGK inhibition assay (ADP-Glo, liposomes), DGKzeta
Format: biochemical
Set-up: hDGKzeta(1-928)-N-His; His (N); made in house; host or cells: Sf21 insect cells (baculovirus)
assayContext: 2 nM DGK ζ, 50 μM ATP, 125 uM DLG in liposomes, 1 hour reaction
measurementLabel: IC50 (nM)

Use these answered entries as a reference point.
compound	measurementUnit	IC50
CC(C)(c1nc(-c2cc3c(cc2F)S(=O)(=O)C[C@H](N)C(=O)N3Cc2ccc(Oc3ccccc3)nc2)no1)S(C)(=O)=O	nM	630
COc1ccc(-c2ccc(CN3C(=O)[C@@H](N)CS(=O)(=O)c4cc(F)c(-c5nnc(C(C)(C)S(C)(=O)=O)o5)cc43)cc2)cc1	nM	251
CC(C)(c1nnc(-c2cc3c(cc2F)S(=O)(=O)C[C@H](N)C(=O)N3Cc2ccc(OC(F)(F)C(F)F)cc2)o1)S(C)(=O)=O	nM	370

(a) CC(C)(c1nnc(-c2ccc3c(c2)N(Cc2ccc(Oc4cccc(F)c4)cc2)C(=O)[C@@H](N)CS3(=O)=O)o1)S(C)(=O)=O
(b) CC(C)(c1nc(-c2cc3c(cc2F)S(=O)(=O)C[C@H](N)C(=O)N3Cc2ccc(Cl)cc2)no1)S(C)(=O)=O
When the recorded IC50 values are compared, which is smaller: that of a or that of b ? Output the label that corresponds to your choice.
b
(b: 192 nM, a: 539 nM)

(A) Cc1cccc(Oc2ccc(CN3C(=O)[C@@H](N)CS(=O)(=O)c4ccc(-c5nnc(C(C)(C)S(C)(=O)=O)o5)cc43)cc2)c1
(B) CS(=O)(=O)C1(c2nnc(-c3cc4c(cc3F)S(=O)(=O)C[C@H](N)C(=O)N4Cc3ccc(Cl)cc3)o2)CC1
(C) COc1cc(Cl)cc(Oc2ccc(CN3C(=O)[C@@H](N)CS(=O)(=O)c4ccc(-c5nnc(C(C)(C)S(C)(=O)=O)o5)cc43)cc2)c1
Hello, I need these entries ordered by IC50, highest reading first. Thanks! Returns: the labels listed in the requested order.
C, B, A

(a) CC(C)(c1nnc(-c2ccc3c(c2)N(Cc2ccc(OC(F)(F)F)cc2)C(=O)[C@@H](N)CS3(=O)=O)o1)S(C)(=O)=O
(b) CC(C)(c1nc(-c2cc3c(cc2F)[S+]([O-])C[C@H](N)C(=O)N3Cc2ccc(Oc3ccccc3)cc2)no1)S(C)(=O)=O (stereo partly shown) [Example 51]
(c) CS(=O)(=O)Cn1nnnc1-c1cc2c(cc1F)S(=O)(=O)C[C@H](N)C(=O)N2Cc1ccc(Oc2ccccc2)cc1
(d) CC(C)(c1nnc(-c2ccc3c(c2)N(Cc2ccc(OCc4ccc(F)cc4)cc2)C(=O)[C@@H](N)CS3(=O)=O)o1)S(C)(=O)=O
Ascending by IC50, please. Give me the labels in the order the question wants.
b, d, a, c

* * *

targetOrSystem: DGKzeta (Homo sapiens, UniProt Q13574)
Sequence (Q13574 whole entry): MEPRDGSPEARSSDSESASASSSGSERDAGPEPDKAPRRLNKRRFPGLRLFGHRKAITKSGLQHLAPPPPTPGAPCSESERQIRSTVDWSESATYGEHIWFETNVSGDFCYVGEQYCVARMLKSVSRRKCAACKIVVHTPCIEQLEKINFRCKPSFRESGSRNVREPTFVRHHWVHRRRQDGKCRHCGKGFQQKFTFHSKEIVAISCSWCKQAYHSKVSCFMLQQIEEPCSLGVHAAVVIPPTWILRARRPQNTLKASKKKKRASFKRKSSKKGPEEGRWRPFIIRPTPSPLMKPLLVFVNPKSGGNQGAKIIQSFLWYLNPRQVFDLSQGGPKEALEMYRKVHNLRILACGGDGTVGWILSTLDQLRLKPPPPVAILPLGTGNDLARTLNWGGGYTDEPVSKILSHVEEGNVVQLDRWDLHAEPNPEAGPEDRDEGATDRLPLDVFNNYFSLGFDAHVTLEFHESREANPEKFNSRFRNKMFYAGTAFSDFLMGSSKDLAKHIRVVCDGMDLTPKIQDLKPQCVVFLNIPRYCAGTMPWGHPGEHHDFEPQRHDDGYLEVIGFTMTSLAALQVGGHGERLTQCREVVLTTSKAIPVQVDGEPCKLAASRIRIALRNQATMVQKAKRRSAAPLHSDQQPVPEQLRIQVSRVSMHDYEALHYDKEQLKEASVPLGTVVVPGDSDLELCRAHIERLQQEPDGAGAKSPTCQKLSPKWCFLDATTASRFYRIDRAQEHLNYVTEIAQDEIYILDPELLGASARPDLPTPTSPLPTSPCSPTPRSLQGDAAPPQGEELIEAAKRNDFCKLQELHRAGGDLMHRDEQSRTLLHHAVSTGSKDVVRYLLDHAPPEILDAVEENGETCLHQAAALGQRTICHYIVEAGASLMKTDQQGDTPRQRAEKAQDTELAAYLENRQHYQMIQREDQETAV
protocol: In vitro DGK inhibition assay (ADP-Glo, liposomes), DGKzeta
Format: biochemical
Parameters: hDGKzeta(1-928)-N-His; His (N); made in house; host or cells: Sf21 insect cells (baculovirus)
assayContext: 2 nM DGK ζ, 50 μM ATP, 125 uM DLG in liposomes, 1 hour reaction
measurementLabel: IC50 (nM)

compoundStructure	measurementUnit	recordedNumber
CC(C)(c1nnc(-c2ccc3c(c2)N(Cc2ccc(OC(F)(F)C(F)F)cc2)C(=O)[C@@H](N)CS3(=O)=O)o1)S(C)(=O)=O	nM	978

(1) CC(C)(c1nnc(-c2ccc3c(c2)N(Cc2ccc(OCc4ccccc4)cc2)C(=O)[C@@H](N)CS3(=O)=O)o1)S(C)(=O)=O
(2) CC(C)(c1nnc(-c2ccc3c(c2)N(Cc2ccc(Oc4ccc(F)c(Cl)c4)cc2)C(=O)[C@@H](N)CS3(=O)=O)o1)S(C)(=O)=O
Look at 1 and 2 . Which one has the lower recorded IC50 number? Write the label of whichever entry you select.
2

* * *

targetOrSystem: DGKalpha (Homo sapiens)
protocol: In vitro DGK inhibition assay (ADP-Glo, liposomes), DGKalpha
Format: biochemical
Parameters: hDGKalpha(1-735)-N-His; His (N); made in house; host or cells: Sf21 insect cells (baculovirus)
assayContext: 4 nM DGK α, 25 μM ATP, 125 uM DLG in liposomes, 1 hour reaction
measurementLabel: IC50 (µM)

compound	measurementUnit	recordedNumber
CC(C)(c1nc(-c2cc3c(cc2F)S(=O)(=O)C[C@H](N)C(=O)N3Cc2ccc(C3CCOCC3)cc2)no1)S(C)(=O)=O [Example 53]	µM	8.05

(P) CC(C)(c1nnc(-c2ccc3c(c2)N(Cc2ccc(OC(F)(F)F)cc2)C(=O)[C@@H](N)CS3(=O)=O)o1)S(C)(=O)=O [Example 64]
(Q) CC(C)(c1nc(-c2cc3c(cc2F)S(=O)(=O)C[C@H](N)C(=O)N3Cc2ccc(Oc3ccccc3)cc2)no1)S(C)(=O)=O [Example 30]
(R) COc1ccc(-c2ccc(CN3C(=O)[C@@H](N)CS(=O)(=O)c4ccc(-c5noc(C(C)(C)S(C)(=O)=O)n5)cc43)cc2)cc1 [Example 63]
(S) CC(C)(c1nnc(-c2ccc3c(c2)N(Cc2ccc(Oc4cccc(OC(F)(F)F)c4)cc2)C(=O)[C@@H](N)CS3(=O)=O)o1)S(C)(=O)=O [Example 40]
(T) CC(C)(c1nnc(-c2ccc3c(c2)N(Cc2ccc(Oc4cccc(Cl)c4Cl)cc2)C(=O)[C@@H](N)CS3(=O)=O)o1)S(C)(=O)=O [Example 32]
Sort by IC50, descending. Respond with the label ranking, as requested.
R, T, P, S, Q
(R: 58.9 µM, T: 13.4 µM, P: 3.26 µM, S: 1.97 µM, Q: 0.815 µM)
